Where these numbers come from: patent US6777422B2

Molecular target: human C5a receptor (Homo sapiens)
Construct: endogenous in cells; host or cells: U937 cells differentiated with 1 mM dibutyryl cAMP
Sequence (P21730 1-350): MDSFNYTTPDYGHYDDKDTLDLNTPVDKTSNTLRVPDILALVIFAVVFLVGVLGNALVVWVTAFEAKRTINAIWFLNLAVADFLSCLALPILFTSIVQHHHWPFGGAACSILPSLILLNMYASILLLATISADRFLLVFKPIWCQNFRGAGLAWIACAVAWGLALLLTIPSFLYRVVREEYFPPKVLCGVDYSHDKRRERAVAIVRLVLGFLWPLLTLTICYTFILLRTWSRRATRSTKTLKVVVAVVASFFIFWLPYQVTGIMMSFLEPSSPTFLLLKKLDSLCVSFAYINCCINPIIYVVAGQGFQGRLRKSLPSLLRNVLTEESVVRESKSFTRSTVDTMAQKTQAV
Assay: C5a receptor mediated calcium mobilization assay (Example 20)
Assay type: cell-based
Conditions: differentiated U937 cells, unit inferred, read-out: Ca2+ (numeric value, C5a receptor mediated calcium mobilization)
So basically: is Ki under 200 nM? Then True. Not under? Then False.

Study these solved cases before continuing.
{"Molecule": "COc1ccccc1C1CCCCN1CC(=O)N(Cc1ccccc1F)C1Cc2ccccc2C1 (stereo not drawn)", "Study Target": "human C5a receptor (Homo sapiens)", "Class Name": "False"}
{"Molecule": "Cc1ccccc1[C@@H]1C2=C(CCCC2)CCN1CC(=O)N(Cc1ccccc1F)C1Cc2ccccc2C1 (stereo in doubt)", "Study Target": "human C5a receptor (Homo sapiens)", "Class Name": "True"}
{"Molecule": "CN(CC(=O)N(Cc1ccccc1F)C1Cc2ccccc2C1)C(c1ccccc1)c1ccccc1", "Study Target": "human C5a receptor (Homo sapiens)", "Class Name": "False"}
{"Molecule": "CC1=C(C)C(c2ccccc2)N(CC(=O)N(Cc2ccccc2F)C2Cc3ccccc3C2)CC1 (stereo not drawn)", "Study Target": "human C5a receptor (Homo sapiens)", "Class Name": "False"}
{"Molecule": "Cc1ccccc1C1CCCCN1CC(=O)N(Cc1ccccc1F)C1Cc2ccccc2C1 (stereo not drawn)", "Study Target": "human C5a receptor (Homo sapiens)", "Class Name": "True"}

### Prompt Regarding Cc1ccccc1C1c2ccsc2CCN1CC(=O)N(Cc1ccccc1F)C1Cc2ccccc2C1 (stereo not drawn) , kindly confirm whether its Ki is beneath 200 nM.
### Response True

### Prompt Regarding Cc1ccccc1C1C(C)CCCN1CC(=O)N(Cc1ccccc1F)C1Cc2ccccc2C1 (stereo not drawn) , kindly confirm whether its Ki is beneath 200 nM.
### Response False

### Prompt Say whether its Ki is strictly beneath 200 nM. Entry: Cc1ccccc1[C@@H]1CCCCN1[C@@H](C)C(=O)N(Cc1ccccc1F)C1Cc2ccccc2C1 (stereo in doubt)
### Response True

### Prompt Input CC1=C(C)C(c2ccccc2C)N(CC(=O)N(Cc2ccccc2F)C2Cc3ccccc3C2)CC1 (stereo not drawn) ; condition: Ki strictly below 200 nM. Does it hold?
### Response True
